Test: Cupric reducing antioxidant capacity (CUPRAC) assay
Conditions: concentration at 0.50 absorbance
Marks after values point to notes of the source that are not given here.
Quantity measured: CUPRAC (A0.5)

// solved cases for CUPRAC (A0.5) follow
Compound	Observed result
Cc1c(C)c2c(c(C)c1O)CCC(C)(C(=O)O)O2 (stereo not shown)	8.69 ± 0.14 ^e µg/mL
Cc1cc(C(C)(C)C)c(O)c(C(C)(C)C)c1	8.97 ± 3.94 ^b µg/mL
COc1ccc(O)c(C(C)(C)C)c1	5.35 ± 0.71 ^c µg/mL

Measured CUPRAC (A0.5), `O=C1O[C@H]([C@@H](O)CO)C(O)=C1O` : 8.31 ± 0.15 ^d µg/mL
